The measured values listed here are drawn from patent US8586555B2.

Tested on: human peripheral blood mononuclear cells (hPBMC)
EXPERIMENT NOTES: human PBMC assay, Example 6
Assay type: cell-based
ASSAY CONDITIONS: mean of donors 28075-28078
Method: Hexameric oligonucleotides were tested for immunomodulatory activity alone and complexed with lactic acid/glycolic acid copolymer microcarrier beads using a human peripheral blood mononuclear cells (hPBMC) assay. Peripheral blood was collected from healthy volunteers by venipuncture using heparinized syringes. […]
OUTCOME MEASURE: IFN-α Mean (pg/mL)
Field: numeric (pg/mL). Do not append units.

Below: 4 substances and their reported IFN-α Mean.
IN: Read the entry 5′-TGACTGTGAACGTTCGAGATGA-3′ [ISS+, reference compound] and write its reported IFN-α Mean.
OUT: 55

IN: Read the entry 5′-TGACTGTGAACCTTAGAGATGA-3′ (DNA, all phosphorothioate, methylation of C not given here) [ISS−, reference compound] and write its reported IFN-α Mean.
OUT: 36

IN: Annotate the substance 5′-TCGTCG-3′ [Oligonucleotide 6-12] with its measured IFN-α Mean.
OUT: 94

IN: Give the measured IFN-α Mean for 5′-GCGTTT-3′ [Oligonucleotide 6-15]
OUT: 29

Further cases:
IN: Read the entry 5′-TCGTTT-3′ [Oligonucleotide 6-2] and write its reported IFN-α Mean.
OUT: 53

IN: // Input: 5′-CCGTTT-3′ [Oligonucleotide 6-14] . Output its IFN-α Mean only.
OUT: 76

IN: Using known records, supply IFN-α Mean for 5′-ACGTTT-3′ [Oligonucleotide 6-13]
OUT: 28
